Values compiled from patent US8410117B2.

pIC50, human PDE10A (Homo sapiens): measured values
Friendly reminder that pIC50 comes from taking -log10 of the concentration in mol/L.

- entry.smiles: "Cn1ncc(C(=O)N2CCC2)c1C(=O)Nc1ccn2cc(-c3ccccc3)nc2n1"
  val: 8.48
- entry.smiles: "Cn1ncc(C(=O)N2CCCC2)c1C(=O)Nc1ccn2cc(-c3ccccc3)nc2n1"
  val: 8.46
- entry.smiles: "Cn1ncc(C(=O)NCc2ccccn2)c1C(=O)Nc1ccn2cc(-c3ccccc3)nc2n1"
  val: 7.92
- entry.smiles: "CNC(=O)c1[nH]nnc1C(=O)Nc1ccn2cc(-c3ccccc3)nc2n1"
  val: 7.46
- entry.smiles: "CN(CCOCCF)C(=O)c1cnn(C)c1C(=O)Nc1ccn2cc(-c3ccccc3)nc2n1"
  val: 7.36

# input What value of pIC50 has been recorded for this entry: "CCN(C)C(=O)c1cnn(CC)c1C(=O)Nc1ccn2cc(-c3ccccc3)nc2n1"
# output 8.55

# input If you can, please state the reported pIC50 value of "Cc1nc(CNC(=O)c2cnn(C)c2C(=O)Nc2ccn3cc(-c4ccccc4)nc3n2)cs1" .
# output 6.20

# input Which value of pIC50 has been reported for "O=C(Nc1ccn2cc(-c3ccccc3)nc2n1)c1cccnc1C(=O)N1CCC1" in the records?
# output 6.09
